These entries and their values trace back to ChEMBL document CHEMBL3507680.

// reported cytotoxicity at 70.5 h for each item listed
- ASSAY_NAME: Human HepG2 cell viability assay in 384 well format
- Assay type: toxicity, cell-based
- Parameters: dose 125 nL, time 70.5 hour; concentration not given beside the values
- CONDITION_LABEL: HepG2 cells, read-out: Inhibition
OBSERVABLE: cytotoxicity at 70.5 h (%)

> print(dat)
                                    molecule  unit.label  numeric.readout
 1  O=C1NCCCC12CCN(c1nc3c(c(C(F)(F)F)n1)CCCC3)C2 (stereo unspecified)           %               -6
 2  Cc1cnc(CN2CCOC(Cn3nc(C)cc3C)C2)cn1 (stereo unspecified)           %             13.7
 3  CN1C(=O)CC2(CCN(S(=O)(=O)C3CC3)CC2)c2ccccc21           %             7.41
 4  COCCNC(=O)C[C@@H]1COC[C@H]2CN(C(=O)COC)C[C@@H]12           %            -8.18
 5   CC(C)n1cnc2ccc(NC(=O)CCCn3cccn3)cc2c1=O           %             21.7
 6  Cc1cccc(N2CCN(CCNC(=O)C(C)n3cncn3)CC2)c1 (stereo unspecified)           %            -6.98
 7   COc1cc2c(nn1)CCN(Cc1nnc(Cc3ccccc3)o1)C2           %             -3.6
 8  CN1CC2(CCN(CCOCCO)CC2)CC(c2ccccc2)C1=O (stereo unspecified)           %             29.9
 9  C=C(C)COc1ccc(C(=O)NCC2CC(CC)=NO2)cc1 (stereo unspecified)           %            -15.2
10  CN(C)C(=O)[C@@H]1CC[C@@H]2[C@@H](CCN2Cc2ccccn2)O1           %            -7.99
11  c1ccc2c(CC3CN(Cc4nccs4)CCO3)cccc2c1 (stereo unspecified)           %           -0.398

* * *

// reported cytotoxicity at 70.5 h for each item listed
- ASSAY_NAME: Human HepG2 cell viability assay in 384 well format
- Assay type: toxicity, cell-based
- Design: dose 125 nL, time 70.5 hour; concentration not given beside the values
- CONDITION_LABEL: HepG2 cells, read-out: Inhibition
OBSERVABLE: cytotoxicity at 70.5 h (%)

> print(dat)
                                    compound  numeric.readout
 1  CCn1nc(C)c(CCNC(=O)C2CCCN(C(=O)COC)C2)c1C (stereo unspecified)               18
 2  O=C(c1ccc(-n2cccc2)c(F)c1)N1CCCN2CCCC2C1 (stereo unspecified)             8.53
 3  CCOCCN1CCN(CCCS(C)(=O)=O)CC1C (stereo unspecified)             11.8
 4  COc1ccc(CCN2C(=O)O[C@@H]3CN(C)C[C@@H]32)cc1            -10.7
 5       Cn1ccnc1CN1CCN(CC(=O)NCC(F)(F)F)CC1            -10.6
 6  O=C(Nc1ccccc1OCCc1ccccn1)N1CCOCC(O)C1 (stereo unspecified)            -8.87
 7  Cc1cncc(C(=O)N2CCC3(CC2)C(=O)Nc2ccccc23)c1            -7.06
 8  Cc1cc(C(=O)N2CCc3[nH]nc(-c4ccc5c(c4)OCO5)c3C2)no1             1.25
 9  COCCN1CCCC(c2nc3c([nH]2)CC(C)(C)CNC3=O)C1 (stereo unspecified)               -3
10    COC1CCN(CC(=O)NCc2ccc(OCC(N)=O)cc2)CC1           0.0627
11        O=S(=O)(NCc1ccccc1Cn1cncn1)C1CCCC1             2.05
